- system_under_test: E3 ubiquitin-protein ligase UHRF1 (Homo sapiens) (UniProt Q96T88)
- Sequence (Q96T88 whole entry, looked up, the tested form may be a part): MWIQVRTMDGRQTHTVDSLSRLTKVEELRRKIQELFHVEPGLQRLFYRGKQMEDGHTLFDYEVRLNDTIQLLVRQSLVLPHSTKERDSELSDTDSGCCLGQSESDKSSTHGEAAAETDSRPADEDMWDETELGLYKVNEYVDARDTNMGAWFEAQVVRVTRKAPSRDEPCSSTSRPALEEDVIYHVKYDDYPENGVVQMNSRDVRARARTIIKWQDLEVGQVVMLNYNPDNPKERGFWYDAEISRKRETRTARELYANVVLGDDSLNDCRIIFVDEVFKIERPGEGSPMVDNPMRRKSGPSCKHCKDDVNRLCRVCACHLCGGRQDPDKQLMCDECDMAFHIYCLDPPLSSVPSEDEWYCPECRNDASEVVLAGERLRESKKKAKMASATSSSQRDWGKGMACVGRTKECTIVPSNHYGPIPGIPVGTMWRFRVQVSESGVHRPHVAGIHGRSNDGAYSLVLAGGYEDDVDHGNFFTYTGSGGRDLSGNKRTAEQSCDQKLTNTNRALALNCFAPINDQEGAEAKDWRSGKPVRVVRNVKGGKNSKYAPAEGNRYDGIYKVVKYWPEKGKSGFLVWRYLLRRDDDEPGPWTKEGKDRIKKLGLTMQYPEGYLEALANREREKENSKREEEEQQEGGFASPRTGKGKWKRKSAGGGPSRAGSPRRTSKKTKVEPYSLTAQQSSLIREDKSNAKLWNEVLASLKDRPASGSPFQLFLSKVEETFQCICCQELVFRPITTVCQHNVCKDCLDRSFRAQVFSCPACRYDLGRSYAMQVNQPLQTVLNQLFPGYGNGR
- test_protocol: blockers of UHRF1 binding to methyl-oligo – biochemical, TR-FRET, human UHRF1, single concentration, counter-screen for MBD2 inhibitor project, primary screen (AID 687016);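 note: UHRF1 SRA domain binding a hemimethylated CpG hairpin DNA probe; 0% = median of test compound wells and 100% = reference inhibitor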
- assay_context: UHRF1 binding to methylated oligo, at 4.4 µM, hits give high values
The campaign covered roughly 370,000 compounds. About 2,800 (0.76%) were called active. The entries come from a sample that favours actives as a whole.
Documented inhibition across a set of compounds
// units = %; emit number, no label

Reference set, count: 5
- compound: "CCN(C(=O)[C@@H](C1CC1)[C@@H](O)c1ccc2ccccc2c1)c1ccccc1"
  inhibition (%): -2.68
- compound: "COc1cccc2c1C(=O)c1c(O)c3c(c(O)c1C2=O)CC(O)(C(C)=NNC(=O)c1ccc(Cl)c(Cl)c1)CC3OC1CC(N)C(O)C(C)O1 (stereo unspecified)"
  inhibition (%): 96
- compound: "CC(C)(C)c1ccc(C(=O)Nc2cc(Cl)c(Br)cc2C(=O)O)cc1"
  inhibition (%): 3.66
- compound: "CCN(CC)CCCNC(=O)Cn1cnc2sc(C)c(S(=O)(=O)N3CCN(c4ncccn4)CC3)c2c1=O"
  inhibition (%): 31.2
- compound: "COc1ccccc1CCNC(=O)C1CCN(c2nc(C)cc(C)n2)CC1"
  inhibition (%): 2.65

Find the measured inhibition: item CCN(CC)CCNC(=O)Cn1cnc2sc(C)c(S(=O)(=O)N3CCOCC3)c2c1=O , target or system E3 ubiquitin-protein ligase UHRF1 (Homo sapiens) (UniProt Q96T88).
6.01

Reference source: PubChem BioAssay AID687016
